one-hybrid fitness for binding parS DNA values for the variants below.
B1: Caulobacter ParB omega fusion; a variant is named by its letters at X, in order, B8GW30 (parent)
chain: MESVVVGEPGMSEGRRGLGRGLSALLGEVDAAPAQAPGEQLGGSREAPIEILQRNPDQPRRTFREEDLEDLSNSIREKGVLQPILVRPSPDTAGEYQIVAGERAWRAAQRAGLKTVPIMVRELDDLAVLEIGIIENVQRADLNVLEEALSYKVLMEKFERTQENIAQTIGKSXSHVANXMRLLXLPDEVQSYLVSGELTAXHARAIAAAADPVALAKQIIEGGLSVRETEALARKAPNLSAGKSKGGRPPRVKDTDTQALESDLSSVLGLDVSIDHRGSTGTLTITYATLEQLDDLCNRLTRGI

Variants of: B1
ASSAY_NAME: one-hybrid fitness for binding parS DNA (scaled: cognate 1, non-cognate 0); higher = stronger binding
ASSAY_CONTEXT: with parS DNA site
Whole data set: some 81,000 sequences, median “one-hybrid fitness for binding parS DNA” near -0.17, cut for the highest 2% near 0.51. What follows is part of a selection rich in the highest values, with near analogues and random picks from the rest.
REPORTED_PROPERTY: one-hybrid fitness for binding parS DNA

- MUT: "ASIR"
  REPORTED_PROPERTY: "one-hybrid fitness for binding parS DNA"
  VALUE_OBSERVED: "≤ 0.2"
- MUT: "KYLA"
  REPORTED_PROPERTY: "one-hybrid fitness for binding parS DNA"
  VALUE_OBSERVED: "≤ 0.2"
- MUT: "YIPE"
  REPORTED_PROPERTY: "one-hybrid fitness for binding parS DNA"
  VALUE_OBSERVED: "≤ 0.2"
- MUT: "RMQD"
  REPORTED_PROPERTY: "one-hybrid fitness for binding parS DNA"
  VALUE_OBSERVED: 0.318
- MUT: "NYLV"
  REPORTED_PROPERTY: "one-hybrid fitness for binding parS DNA"
  VALUE_OBSERVED: "≤ 0.2"
- MUT: "RMST"
  REPORTED_PROPERTY: "one-hybrid fitness for binding parS DNA"
  VALUE_OBSERVED: 0.945
- MUT: "RMQT"
  REPORTED_PROPERTY: "one-hybrid fitness for binding parS DNA"
  VALUE_OBSERVED: 0.921
- MUT: "GKCT"
  REPORTED_PROPERTY: "one-hybrid fitness for binding parS DNA"
  VALUE_OBSERVED: "≤ 0.2"
- MUT: "LCPN"
  REPORTED_PROPERTY: "one-hybrid fitness for binding parS DNA"
  VALUE_OBSERVED: "≤ 0.2"
- MUT: "RMYT"
  REPORTED_PROPERTY: "one-hybrid fitness for binding parS DNA"
  VALUE_OBSERVED: 0.923
- MUT: "MPLG"
  REPORTED_PROPERTY: "one-hybrid fitness for binding parS DNA"
  VALUE_OBSERVED: "≤ 0.2"
- MUT: "RMSF"
  REPORTED_PROPERTY: "one-hybrid fitness for binding parS DNA"
  VALUE_OBSERVED: 0.258
- MUT: "STKF"
  REPORTED_PROPERTY: "one-hybrid fitness for binding parS DNA"
  VALUE_OBSERVED: "≤ 0.2"
- MUT: "CKLV"
  REPORTED_PROPERTY: "one-hybrid fitness for binding parS DNA"
  VALUE_OBSERVED: "≤ 0.2"

Reference source for all entries: a collection of fitness landscapes (doi:10.1016/j.celrep.2020.107928)
